Test: Cytotoxicity against human NCM460 cells assessed as inhibition rate of cell growth at 100 uM incubated for 24 hrs by CCK8 assay relative to control
Assay type: toxicity, cell-based
property: inhibition at 24 h, 100 µM (%)
Report as a plain number; the unit % is understood.

[
  {
    "molecule": "COc1cc(Cc2cnc(N)nc2N)cc(OC)c1OC [TRIMETHOPRIM]",
    "inhibition at 24 h, 100 µM, %": 8.06
  },
  {
    "molecule": "CCc1cc(Oc2cnc(N)nc2N)c(C(C)C)cc1OC",
    "inhibition at 24 h, 100 µM, %": 8.5
  },
  {
    "molecule": "CCCOc1cc(C(C)C)c(Oc2cnc(N)nc2N)cc1I",
    "inhibition at 24 h, 100 µM, %": 66.7
  }
]

Data request: Which inhibition at 24 h, 100 µM is listed for COc1cc(C(C)C)c(Oc2cnc(N)nc2N)cc1-c1ccc(C(C)C)cc1 ?
Data returned: 44

Data request: Sample COc1cc(C(C)C)c(Oc2cnc(N)nc2N)cc1-c1ccc(C(F)(F)F)cc1 — what was its inhibition at 24 h, 100 µM?
Data returned: 65

Data request: Reported inhibition at 24 h, 100 µM for CCCCCOc1cc(C(C)C)c(Oc2cnc(N)nc2N)cc1I : what is it?
Data returned: 41.5

Data request: Find the recorded inhibition at 24 h, 100 µM belonging to COc1cc(C(C)C)c(Oc2cnc(N)nc2N)cc1-c1ccc(C(=O)O)cc1 and report it.
Data returned: 6.53

Data request: # inhibition at 24 h, 100 µM lookup, item COc1cc(C(C)C)c(Oc2cnc(N)nc2N)cc1-c1cc(Cl)cc(Cl)c1
Data returned: 66.2

Data request: Sample COc1cc(C(C)C)c(Oc2cnc(N)nc2N)cc1CC(C)C — what was its inhibition at 24 h, 100 µM?
Data returned: 67.4

Data request: Param item = COc1cc(OC)cc(-c2cc(Oc3cnc(N)nc3N)c(C(C)C)cc2OC)c1 ; retrieve measured inhibition at 24 h, 100 µM.
Data returned: 66.8

Data request: # inhibition at 24 h, 100 µM lookup, item COc1cc(C(C)C)c(Oc2cnc(N)nc2N)cc1-c1cc(F)cc(F)c1
Data returned: 52.1

---

# key: entry, value: inhibition
Test system: Dihydrofolate reductase (Staphylococcus aureus)
Details: dose 100.0 nM
The answer is to be given in %; state only the numeric part.

Examples with answers:
[
  {
    "compoundStructureString": "COc1cc(C(C)C)c(Oc2cnc(N)nc2N)cc1-c1cc(Cl)cc(Cl)c1",
    "studyTarget": "Dihydrofolate reductase (Staphylococcus aureus)",
    "readingUnit": "%",
    "inhibition": 78.6
  },
  {
    "compoundStructureString": "COc1cc(C(C)C)c(Oc2cnc(N)nc2N)cc1-c1ccc(-c2ccccc2)cc1",
    "studyTarget": "Dihydrofolate reductase (Staphylococcus aureus)",
    "readingUnit": "%",
    "inhibition": 26.8
  },
  {
    "compoundStructureString": "CC(C)c1cc(OCC2CC2)c(-c2ccc(OC(F)(F)F)cc2)cc1Oc1cnc(N)nc1N",
    "studyTarget": "Dihydrofolate reductase (Staphylococcus aureus)",
    "readingUnit": "%",
    "inhibition": 78.9
  }
]

Attention now turns to another entry.
Data request: // query inhibition value for entry CCCCCCOc1cc(C(C)C)c(Oc2cnc(N)nc2N)cc1I
Data returned: 42.9

---

Tested on: Staphylococcus aureus
Assay: Antibacterial activity against TMP-resistant Staphylococcus aureus BHKS 227 incubated for 24 hrs by CLSI based broth microdilution assay
Format: functional
property: MIC (µg/mL)
Number only, in µg/mL; omit the unit.

[
  {
    "compound": "CC(C)c1cc(OCC2CC2)c(I)cc1Oc1cnc(N)nc1N",
    "MIC / µg/mL": 0.5
  },
  {
    "compound": "CCc1cc(Oc2cnc(N)nc2N)c(C(C)CC)cc1OC (stereo unspecified)",
    "MIC / µg/mL": 4
  },
  {
    "compound": "COc1cc(C(C)C)c(Oc2cnc(N)nc2N)cc1-c1ccncc1",
    "MIC / µg/mL": 4
  },
  {
    "compound": "CCCCCOc1cc(C(C)C)c(Oc2cnc(N)nc2N)cc1I",
    "MIC / µg/mL": 2
  }
]

Data request: Please report the recorded MIC for COc1cc(C(C)C)c(Oc2cnc(N)nc2N)cc1-c1cccc(C(F)(F)F)c1 .
Data returned: 4

Data request: Report MIC for COc1cc(C(C)C)c(Oc2cnc(N)nc2N)cc1-c1ccc(Cl)c(Cl)c1 please.
Data returned: 2

---

Experiment: Cmax in Sprague-Dawley rat at 5 mg/kg, iv measured for 24 hrs by LC/MS analysis
Format: ADME, organism-based
Conditions: in vivo
property: Cmax (ng/mL)
Give your result in ng/mL as a bare value.

Data request: Value lookup for Cmax; key = CC(C)c1cc(OCC2CC2)c(I)cc1Oc1cnc(N)nc1N
Data returned: 4060

---

Target: Dihydrofolate reductase (Staphylococcus aureus)
property: pIC50
As a rule, pIC50 stands for the negative log10 of the concentration, concentration in M.

Would you please look over these solved cases?
[
  {
    "compoundStructureString": "COc1ccc(Oc2cnc(N)nc2N)cc1-c1ccc(OC(F)(F)F)cc1",
    "property": "pIC50",
    "valueMeasured": 7.80
  },
  {
    "compoundStructureString": "COc1cc(C(C)C)c(Oc2cnc(N)nc2N)cc1-c1cccc(C(F)(F)F)c1",
    "property": "pIC50",
    "valueMeasured": 6.62
  },
  {
    "compoundStructureString": "CCc1cc(Oc2cnc(N)nc2N)c(C(C)C)cc1OC",
    "property": "pIC50",
    "valueMeasured": 7.61
  },
  {
    "compoundStructureString": "COc1cc(C(C)C)c(Oc2cnc(N)nc2N)cc1CC(C)C",
    "property": "pIC50",
    "valueMeasured": 7.62
  },
  {
    "compoundStructureString": "COc1cc(C(C)C)c(Oc2cnc(N)nc2N)cc1-c1ccc(C(=O)O)cc1",
    "property": "pIC50",
    "valueMeasured": 8.35
  }
]

Data request: Please tell me: pIC50 of COc1cc(C(C)C)c(Oc2cnc(N)nc2N)cc1-c1ccc(C(F)(F)F)cc1 , system Dihydrofolate reductase (Staphylococcus aureus)?
Data returned: 7.22

Data request: Notebook: pull reported pIC50 for Dihydrofolate reductase (Staphylococcus aureus), entry CC(C)c1cc(OCC2CC2)c(I)cc1Oc1cnc(N)nc1N
Data returned: 9.01

---

System: Staphylococcus aureus
Assay: Antibacterial activity against TMP-resistant Staphylococcus aureus BHKS 227 incubated for 24 hrs by CLSI based broth microdilution assay
Type: functional
property: MIC (µg/mL)
Answer in µg/mL, number only, no unit symbol.

[
  {
    "compoundStructureString": "COc1cc(C(C)C)c(Oc2cnc(N)nc2N)cc1-c1cc(C)cc(C)c1",
    "MIC / µg/mL": 2
  },
  {
    "compoundStructureString": "CC(C)c1cc(OCC2CCCC2)c(I)cc1Oc1cnc(N)nc1N",
    "MIC / µg/mL": 2
  }
]

Next molecule, MIC to be filled in.
Data request: Quick one: MIC of COc1cc(C(C)C)c(Oc2cnc(N)nc2N)cc1-c1ccc(-c2ccccc2)cc1 ?
Data returned: 2

---

Tested on: Dihydrofolate reductase (Staphylococcus aureus)
Settings: dose 100.0 nM
property: inhibition

Example molecules with recorded inhibition:
[
  {
    "compoundStructureString": "COc1cc(C(C)C)c(Oc2cnc(N)nc2N)cc1-c1ccc(Cl)cc1",
    "inhibition": "94.3%"
  },
  {
    "compoundStructureString": "CC(C)c1cc(OCC2CC2)c(-c2cc(Cl)cc(Cl)c2)cc1Oc1cnc(N)nc1N",
    "inhibition": "89.2%"
  }
]

Here is another molecule to look at.
Data request: // returns reported inhibition for input CC(C)c1cc(OCC2CCCCC2)c(I)cc1Oc1cnc(N)nc1N
Data returned: 59.8%

---

System: Dihydrofolate reductase (Staphylococcus aureus)
Details: dose 100.0 nM
property: inhibition (%)
Give the value in % but do not write % after it.

These recorded examples may help you get a feel for the data.
[
  {
    "compound": "CC(C)c1cc(OCC2CCC2)c(I)cc1Oc1cnc(N)nc1N",
    "readingUnit": "%",
    "inhibition": 61.3
  },
  {
    "compound": "COc1cc(C(C)C)c(Oc2cnc(N)nc2N)cc1-c1ccc(Cl)c(Cl)c1",
    "readingUnit": "%",
    "inhibition": 60.8
  },
  {
    "compound": "CC(C)c1cc(O)c(I)cc1Oc1cnc(N)nc1N",
    "readingUnit": "%",
    "inhibition": 61.7
  },
  {
    "compound": "CCC(C)c1cc(OC)c(I)cc1Oc1cnc(N)nc1N (stereo not drawn)",
    "readingUnit": "%",
    "inhibition": 56.3
  },
  {
    "compound": "COc1cc(C(C)C)c(Oc2cnc(N)nc2N)cc1-c1ccc(F)cc1",
    "readingUnit": "%",
    "inhibition": 27.2
  }
]

Continue with the compound presented below.
Data request: Missing value: inhibition, Dihydrofolate reductase (Staphylococcus aureus), entry COc1cc(C(C)C)c(Oc2cnc(N)nc2N)cc1-c1ccccc1Cl . Fill in?
Data returned: 74.3
